These entries and their values trace back to the supplement of paper PMC3334620.

SYSTEM NAME: Stp1 (UniProt B3LFK1)
Sequence: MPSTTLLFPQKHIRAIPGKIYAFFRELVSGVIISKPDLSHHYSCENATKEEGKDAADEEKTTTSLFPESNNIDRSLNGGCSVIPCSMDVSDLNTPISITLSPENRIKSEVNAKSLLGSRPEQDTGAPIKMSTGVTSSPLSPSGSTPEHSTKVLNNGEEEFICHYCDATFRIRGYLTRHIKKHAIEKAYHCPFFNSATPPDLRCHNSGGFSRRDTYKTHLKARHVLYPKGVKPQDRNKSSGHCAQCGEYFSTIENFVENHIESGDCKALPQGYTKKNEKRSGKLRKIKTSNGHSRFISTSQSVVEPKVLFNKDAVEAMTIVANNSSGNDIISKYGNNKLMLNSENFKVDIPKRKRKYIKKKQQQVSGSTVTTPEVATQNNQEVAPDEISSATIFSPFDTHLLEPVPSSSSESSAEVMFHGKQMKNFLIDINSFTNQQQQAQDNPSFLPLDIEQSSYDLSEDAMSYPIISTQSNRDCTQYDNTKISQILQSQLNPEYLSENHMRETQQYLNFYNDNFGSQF
ASSAY OVERVIEW: PBM E-score (8-mer binding enrichment) (E-score (-0.5 to 0.5)); higher = stronger / more preferred TF binding
TEST CONTEXT: protein concentration: 200 nM; construct: GST-full length
Whole data set: some 33,000 sequences, median “E-score (-0.5 to 0.5)” near -0.016, cut for the highest 2% near 0.32. The entries come from a sample that favours the highest values as a whole.
// PBM E-score lookup, one value per entry
Hey, just send me the number, nothing else.

Study these solved cases before continuing.
>>> print(df.to_string())
   sequence_text  outcome_measure  quantitative_readout
0       AGCCGCCA      PBM E-score                -0.122
1       ACCGCCCC      PBM E-score                -0.144
2       TGGCGCAA      PBM E-score                 0.298
3       ACAGATAA      PBM E-score               -0.0189

Exercise: Quick check: PBM E-score of `GACCAACC` ?
Solution: -0.152

Exercise: Note, next up: `CCAACTAG`
Solution: -0.0642

Exercise: Note, next up: `CAGATTTA`
Solution: 0.198

Exercise: Note, next up: `GAACTGAC`
Solution: 0.0623

Exercise: Note, next up: `CTCCGCCC`
Solution: -0.192

Exercise: Note, next up: `GTCAAATA`
Solution: 0.0762

Exercise: Note, next up: `GGGCGCAC`
Solution: -0.0463

Exercise: Note, next up: `AACAGTAC`
Solution: 0.0276

Exercise: Note, next up: `CGCCGCCG`
Solution: 0.402

Exercise: Note, next up: `CCCCGTCA`
Solution: -0.177

Exercise: Note, next up: `CGGCGCAG`
Solution: 0.428

###

SYSTEM NAME: Stp1 (UniProt B3LFK1)
Sequence: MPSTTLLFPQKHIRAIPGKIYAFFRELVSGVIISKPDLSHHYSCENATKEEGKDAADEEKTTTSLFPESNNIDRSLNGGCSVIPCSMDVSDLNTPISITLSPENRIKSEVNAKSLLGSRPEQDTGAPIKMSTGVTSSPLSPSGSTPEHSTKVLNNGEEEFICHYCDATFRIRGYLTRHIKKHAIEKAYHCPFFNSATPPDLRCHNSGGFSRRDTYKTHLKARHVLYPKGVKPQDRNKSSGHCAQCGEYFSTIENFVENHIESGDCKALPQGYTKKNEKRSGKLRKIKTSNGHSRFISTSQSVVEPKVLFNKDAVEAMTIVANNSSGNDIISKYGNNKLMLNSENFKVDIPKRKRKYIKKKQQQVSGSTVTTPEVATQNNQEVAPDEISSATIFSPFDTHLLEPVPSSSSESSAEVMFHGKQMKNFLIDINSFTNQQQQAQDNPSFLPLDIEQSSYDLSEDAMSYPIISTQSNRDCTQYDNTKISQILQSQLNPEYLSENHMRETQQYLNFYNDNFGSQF
ASSAY OVERVIEW: PBM E-score (8-mer binding enrichment) (E-score (-0.5 to 0.5)); higher = stronger / more preferred TF binding
TEST CONTEXT: protein concentration: 200 nM; construct: GST-full length
Whole data set: some 33,000 sequences, median “E-score (-0.5 to 0.5)” near -0.016, cut for the highest 2% near 0.32. The full list was thinned out, with the highest values kept by preference.
OUTCOME MEASURE: PBM E-score
Hey, just send me the number, nothing else.

Study these solved cases before continuing.
In [3]: df
Out[3]:
   sequence_text  quantitative_readout
0       CCCCGTAG               -0.0863
1       CACCGTAC                 0.121
2       AATTTGGG               -0.0818
3       ATCCGTAG                 0.112
4       AGCCGTAT                 0.435
5       GGCCGCGA               -0.0392

Exercise: Quick check: PBM E-score of `GCTACACC` ?
Solution: -0.0559

Exercise: Note, next up: `CACCGCGA`
Solution: -0.0402

Exercise: Note, next up: `ACACCTTA`
Solution: 0.0262

Exercise: Note, next up: `CCTAAGCC`
Solution: -0.355

Exercise: Note, next up: `AATATCGT`
Solution: 0.141

Exercise: Note, next up: `ACATTCAC`
Solution: -0.0143

Exercise: Note, next up: `CGCCGTAG`
Solution: 0.465

Exercise: Note, next up: `AGCCGTAA`
Solution: 0.31

Exercise: Note, next up: `AGCCGTAG`
Solution: 0.392

Exercise: Note, next up: `AAAGCGGG`
Solution: -0.19

###

SYSTEM NAME: Stp1 (UniProt B3LFK1)
Sequence: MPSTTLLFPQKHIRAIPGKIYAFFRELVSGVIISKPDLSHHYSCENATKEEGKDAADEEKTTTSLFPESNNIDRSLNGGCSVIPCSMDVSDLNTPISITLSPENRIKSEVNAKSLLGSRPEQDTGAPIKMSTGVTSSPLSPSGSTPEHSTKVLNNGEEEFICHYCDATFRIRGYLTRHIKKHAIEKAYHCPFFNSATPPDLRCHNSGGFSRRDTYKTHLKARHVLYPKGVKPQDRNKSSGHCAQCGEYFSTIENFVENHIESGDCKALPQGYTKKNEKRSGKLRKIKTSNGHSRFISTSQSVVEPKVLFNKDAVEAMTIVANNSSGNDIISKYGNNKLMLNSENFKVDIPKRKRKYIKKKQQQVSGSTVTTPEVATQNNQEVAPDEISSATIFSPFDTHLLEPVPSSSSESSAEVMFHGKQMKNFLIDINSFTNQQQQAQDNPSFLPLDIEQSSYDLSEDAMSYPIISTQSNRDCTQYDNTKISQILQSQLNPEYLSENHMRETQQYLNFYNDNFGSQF
ASSAY OVERVIEW: PBM E-score (8-mer binding enrichment) (E-score (-0.5 to 0.5)); higher = stronger / more preferred TF binding
TEST CONTEXT: protein concentration: 200 nM; construct: GST-full length
Whole data set: some 33,000 sequences, median “E-score (-0.5 to 0.5)” near -0.016, cut for the highest 2% near 0.32. Only a selection was taken, and the highest values are over-represented in it overall.
// PBM E-score lookup, one value per entry

In [3]: df
Out[3]:
   sequence_text  result
0       CAATGCCA  0.0614
1       GCGGCCGA   0.139
2       CTCACGGA  0.0462
3       CCCCTTAA  -0.172
4       ACGTACGC  -0.023

Exercise: Quick check: PBM E-score of `ATATTCGG` ?
Solution: 0.0873

Exercise: Note, next up: `ATGCCGAG`
Solution: 0.31

Exercise: Note, next up: `GCCGTAGC`
Solution: 0.444

Exercise: Note, next up: `GCAACTAA`
Solution: 0.263

Exercise: Note, next up: `CGGCTTAC`
Solution: 0.104

Exercise: Note, next up: `ATATTAGG`
Solution: 0.0795

Exercise: Note, next up: `AACTGAGC`
Solution: -0.0352

Exercise: Note, next up: `CTGTAGCC`
Solution: 0.041

Exercise: Note, next up: `CAAGCGCG`
Solution: 0.124

Exercise: Note, next up: `AGTCTGGC`
Solution: -0.207

Exercise: Note, next up: `GCTACTGA`
Solution: -0.0112

Exercise: Note, next up: `CAATGCCG`
Solution: 0.374
